B1: LINE1-full (parent)
chain: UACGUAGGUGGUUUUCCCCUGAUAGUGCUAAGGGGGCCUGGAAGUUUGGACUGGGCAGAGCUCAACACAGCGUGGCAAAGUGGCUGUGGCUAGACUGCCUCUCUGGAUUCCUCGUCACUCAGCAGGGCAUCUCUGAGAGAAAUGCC

Variants of: B1
assay_notes: self-cleavage, relative activity (ratio to wild type); higher = more cleavage; in vitro, sequencing; the parent is a self-cleaving ribozyme
readout_type: self-cleavage

>>> assay_value("U23C A121C")
1.9
>>> assay_value("A43G A57G")
0.78
>>> assay_value("C3A U12G")
0.81
>>> assay_value("U45A U104C")
1.77
>>> assay_value("U96A U108C")
0.08
>>> assay_value("U5A A50G")
0.78
>>> assay_value("G86A A129G")
0.05
>>> assay_value("U9C C66U")
0.08
>>> assay_value("U13C U52G")
1.3
>>> assay_value("C71U U119C")
1.18
>>> assay_value("A121G A138G")
1.86
>>> assay_value("A6G A57U")
0.42
>>> assay_value("U73A U81C")
1.09
>>> assay_value("U20G A107G")
0.72
>>> assay_value("U45A A59C")
1.01
>>> assay_value("U5A A79U")
0.77
>>> assay_value("G86U A138G")
0.09
>>> assay_value("U87G U143A")
0.22
>>> assay_value("U46C C101U")
2.71
>>> assay_value("C120G A129G")
1.23
>>> assay_value("G105A U109C")
1.46
>>> assay_value("A6G U52C")
0.72
>>> assay_value("C18A A94G")
0.22
>>> assay_value("A117U C128U")
0.86
>>> assay_value("G105U U143A")
1.34
>>> assay_value("U81G A117U")
1.32
>>> assay_value("U47C U132A")
0.93
>>> assay_value("G25A G54U")
0.45
>>> assay_value("U87A U143C")
0.11
>>> assay_value("A124C A129G")
0.66
>>> assay_value("A67G U87A")
0.12
>>> assay_value("U47G A140G")
0.71
>>> assay_value("C110A G139A")
1.17
>>> assay_value("U14C C110U")
1.39
>>> assay_value("U47G C113A")
1.6
>>> assay_value("A64U A79U")
0.64
>>> assay_value("U9C G36U")
2.08
>>> assay_value("U96A U119C")
0.11
>>> assay_value("A57U U100C")
0.19
>>> assay_value("A6G U85C")
0.2
>>> assay_value("U1A A43G")
0.81
>>> assay_value("G4U U20C")
1.33
>>> assay_value("U112A U132A")
1.69
>>> assay_value("C101A A124G")
0.98
>>> assay_value("U14C U119A")
1.25
>>> assay_value("A59C U102C")
2.07
